Answer each item with its documented logP.

Need logP of Cc1cccc2c1C(=O)N(CCO[N+](=O)[O-])CO2 , thanks. 2.54

Need logP of CCCC(=O)OC1Cc2c(O)cc(O)cc2OC1c1ccc(O)c(O)c1 (configuration not stated) , thanks. 2.47

Need logP of Cc1nc2c3c(c(C(=O)N(C)C)cn2c1C)CCC(c1ccccc1)O3 (configuration not stated) , thanks. 3.3

Need logP of O=C(O)CCC(=O)OC1Cc2c(O)cc(O)cc2OC1c1ccc(O)c(O)c1 (configuration not stated) , thanks. 1.41

Need logP of O=C1c2ccccc2-c2nnc(-c3ccc(O)cc3)cc21 , thanks. 2.88

Need logP of CCCCCCCCCCCCNCCO , thanks. 4.51

Need logP of CC(=O)C(Cc1ccccc1)=C(C)O , thanks. 1.89
